Assignment: determine reported normalized RNA/DNA level without ligand (log10) for the given variants.
B1: library; a variant is named by its letters at N, in order (parent)
chain: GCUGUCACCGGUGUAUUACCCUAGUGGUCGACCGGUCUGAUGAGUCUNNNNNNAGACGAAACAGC

variants of: B1; test: normalized RNA/DNA level without ligand (relative to sTRSVctl = 100) (log10 (% of sTRSVctl)); ligand: hypoxanthine (xanthine aptamer); higher = less ribozyme self-cleavage, higher mRNA level; conditions: HEK293T, reporter: mCherry (pCS4076), ligand present: no

Given item CGGAAA , the value recorded as its normalized RNA/DNA level without ligand (log10) is 1.43

Given item ACAUGG , the value recorded as its normalized RNA/DNA level without ligand (log10) is 1.29

Given item CGAGAU , the value recorded as its normalized RNA/DNA level without ligand (log10) is 1.71

Given item CAGUUA , the value recorded as its normalized RNA/DNA level without ligand (log10) is 1.49

Given item UGUAUU , the value recorded as its normalized RNA/DNA level without ligand (log10) is 1.9

Given item AGUAUC , the value recorded as its normalized RNA/DNA level without ligand (log10) is 1.93

Given item CGUAUU , the value recorded as its normalized RNA/DNA level without ligand (log10) is 1.73

Given item GCGAAC , the value recorded as its normalized RNA/DNA level without ligand (log10) is 1.13

Given item UCGAUU , the value recorded as its normalized RNA/DNA level without ligand (log10) is 1.55

Given item UCGACC , the value recorded as its normalized RNA/DNA level without ligand (log10) is 1.96

Given item GUUGCG , the value recorded as its normalized RNA/DNA level without ligand (log10) is 1.58
